- Assay system: BRD4-BD2 (Homo sapiens (Human), UniProt O60885)
- Method: BRD4 AlphaScreen Assay (Example A2), BRD4-BD2
- Type: binding
- Condition details: Assay A2, AlphaScreen, BRD4-BD2; read-out: BRD4 BD-2 enzyme IC50
Experimental endpoint: IC50

Problem: Quick check: IC50 of Cc1noc(C)c1-c1ccc2[nH]c(=O)n3c2c1OC(C)C3c1ccccn1 (stereo not shown) [Example 75] ?
Result: < 0.1 µM

Problem: Quick check: IC50 of Cc1noc(CO)c1-c1ccc2[nH]c(=O)n3c2c1OCC3c1ccccn1 (racemic) [Example 124] ?
Result: 0.1 to 1 µM

Problem: Quick check: IC50 of Cc1noc(C)c1-c1cc(-c2cnn(C)c2)c2[nH]c(=O)n3c2c1OC[C@@H]3c1ccccn1 [Example 81, 2,2,2-trifluoroacetate] ?
Result: < 0.1 µM

Problem: Quick check: IC50 of Cc1noc(C)c1-c1ccc2nc(C(=O)N(C)C)n3c2c1OC[C@@H]3c1ccccn1 [Example 91] ?
Result: < 0.1 µM

###

Consider the following molecules; for each one, report its pIC50.
- Assay system: BRD4-BD1 (Homo sapiens (Human), UniProt O60885)
- Method: BRD4 AlphaScreen Assay (Example A2), BRD4-BD1
- Assay type: binding
- Condition details: Assay A2, AlphaScreen, BRD4-BD1; read-out: BRD4 BD-1 enzyme IC50
pIC50: −log10 of the molar value. Structures can show the parent of a compound that is named as a salt.

Problem: Checklist item: pIC50 tested on BRD4-BD1 (Homo sapiens (Human), UniProt O60885), entry Cc1noc(C)c1-c1ccc2nc(N3CC(NC(=O)OC(C)(C)C)C3)n3c2c1OC[C@@H]3c1ccccn1 , value?
Result: > 7.00

Problem: Checklist item: pIC50 tested on BRD4-BD1 (Homo sapiens (Human), UniProt O60885), entry CNC(=O)C1(c2ccccn2)COc2c(-c3c(C)noc3C)ccc3[nH]c(=O)n1c23 (stereo not shown) [Example 71, 2,2,2-trifluoroacetate] , value?
Result: 6.00 to 7.00

Problem: Checklist item: pIC50 tested on BRD4-BD1 (Homo sapiens (Human), UniProt O60885), entry CCS(=O)(=O)NC1CN(c2nc3ccc(-c4c(C)noc4C)c4c3n2[C@@H](c2ccccn2)CO4)C1 , value?
Result: > 7.00

Problem: Checklist item: pIC50 tested on BRD4-BD1 (Homo sapiens (Human), UniProt O60885), entry Cc1noc(C)c1-c1cc(CNS(C)(=O)=O)c2[nH]c(=O)n3c2c1OC[C@@H]3c1ccccn1 , value?
Result: > 7.00

Problem: Checklist item: pIC50 tested on BRD4-BD1 (Homo sapiens (Human), UniProt O60885), entry Cc1noc(C)c1-c1ccc2nc(C3CCNC3)n3c2c1OC[C@@H]3c1ccccn1 (single isomer, unassigned; diastereomer 2) [Example 106B] , value?
Result: > 7.00

Problem: Checklist item: pIC50 tested on BRD4-BD1 (Homo sapiens (Human), UniProt O60885), entry Cc1noc(CF)c1-c1ccc2[nH]c(=O)n3c2c1OCC3c1ccccn1 (stereo not shown) [Example 125, trifluoroacetate] , value?
Result: 5.00 to 6.00

Problem: Checklist item: pIC50 tested on BRD4-BD1 (Homo sapiens (Human), UniProt O60885), entry Cc1noc(C)c1-c1ccc2nc(C3=CCNC3)n3c2c1OC[C@@H]3c1ccccn1 , value?
Result: > 7.00

Problem: Checklist item: pIC50 tested on BRD4-BD1 (Homo sapiens (Human), UniProt O60885), entry COCC(=O)NCc1cc(-c2c(C)noc2C)c2c3c1[nH]c(=O)n3[C@@H](c1ccccn1)CO2 , value?
Result: > 7.00

Problem: Checklist item: pIC50 tested on BRD4-BD1 (Homo sapiens (Human), UniProt O60885), entry CC(=O)N1CC=C(c2nc3ccc(-c4c(C)noc4C)c4c3n2[C@@H](c2ccccn2)CO4)CC1 , value?
Result: > 7.00

Problem: Checklist item: pIC50 tested on BRD4-BD1 (Homo sapiens (Human), UniProt O60885), entry Cc1noc(C)c1-c1ccc2nc(N(C)CCO)n3c2c1OCC3c1ccccn1 (stereo not shown) , value?
Result: 6.00 to 7.00

Problem: Checklist item: pIC50 tested on BRD4-BD1 (Homo sapiens (Human), UniProt O60885), entry Cc1noc(C)c1-c1cc(-c2cccnc2O)c2[nH]c(=O)n3c2c1OC[C@@H]3c1ccccn1 , value?
Result: 6.00 to 7.00

Problem: Checklist item: pIC50 tested on BRD4-BD1 (Homo sapiens (Human), UniProt O60885), entry Cc1noc(C)c1-c1ccc2[nH]c(=O)n3c2c1OC(C)(C)C3c1ccccn1 (single isomer, unassigned) [Example 61A] , value?
Result: > 7.00

Problem: Checklist item: pIC50 tested on BRD4-BD1 (Homo sapiens (Human), UniProt O60885), entry Cc1noc(C)c1-c1cc(F)c2nc(N(C)C)n3c2c1OCC3c1cccnc1 (stereo not shown) , value?
Result: 6.00 to 7.00

Problem: Checklist item: pIC50 tested on BRD4-BD1 (Homo sapiens (Human), UniProt O60885), entry Cc1noc(C)c1-c1ccc2[nH]c(=O)n3c2c1CCC3c1ccccc1 (stereo not shown) , value?
Result: > 7.00

Problem: Checklist item: pIC50 tested on BRD4-BD1 (Homo sapiens (Human), UniProt O60885), entry Cc1noc(C)c1-c1ccc2nc(C3CCN(C(=O)OC(C)(C)C)C3)n3c2c1OC[C@@H]3c1ccccn1 (single isomer, unassigned; diastereoisomer 2) [Example 101B] , value?
Result: > 7.00

Problem: Checklist item: pIC50 tested on BRD4-BD1 (Homo sapiens (Human), UniProt O60885), entry Cc1noc(C)c1-c1ccc2[nH]c(=O)n3c2c1OCC3c1cncc(F)c1 (stereo not shown) , value?
Result: > 7.00

Problem: Checklist item: pIC50 tested on BRD4-BD1 (Homo sapiens (Human), UniProt O60885), entry CC(=O)N1CCC(c2nc3ccc(-c4c(C)noc4C)c4c3n2[C@@H](c2ccccn2)CO4)C1 (single isomer, unassigned; diastereomer 2) [Example 113B] , value?
Result: > 7.00

Problem: Checklist item: pIC50 tested on BRD4-BD1 (Homo sapiens (Human), UniProt O60885), entry Cc1noc(C)c1-c1ccc2[nH]c(=O)n3c2c1OCC3c1cccnc1CN (stereo not shown) [Example 130, bis(trifluoroacetate)] , value?
Result: > 7.00

Problem: Checklist item: pIC50 tested on BRD4-BD1 (Homo sapiens (Human), UniProt O60885), entry Cc1noc(C)c1-c1cc(-c2ccnc(O)c2)c2[nH]c(=O)n3c2c1OC[C@@H]3c1ccccn1 , value?
Result: 6.00 to 7.00

Problem: Checklist item: pIC50 tested on BRD4-BD1 (Homo sapiens (Human), UniProt O60885), entry Cc1noc(C)c1-c1cc(C(C)O)c2[nH]c(=O)n3c2c1OC[C@@H]3c1ccccn1 (single isomer, unassigned) [Example 144B] , value?
Result: 6.00 to 7.00

Problem: Checklist item: pIC50 tested on BRD4-BD1 (Homo sapiens (Human), UniProt O60885), entry CNC(=O)c1ncccc1C1COc2c(-c3c(C)noc3C)ccc3[nH]c(=O)n1c23 (stereo not shown) , value?
Result: > 7.00

Problem: Checklist item: pIC50 tested on BRD4-BD1 (Homo sapiens (Human), UniProt O60885), entry Cc1noc(C)c1-c1ccc2nc(C3=CCN(C(=O)OC(C)(C)C)C3)n3c2c1OC[C@@H]3c1ccccn1 , value?
Result: > 7.00

Problem: Checklist item: pIC50 tested on BRD4-BD1 (Homo sapiens (Human), UniProt O60885), entry Cc1noc(C)c1-c1cc(-c2ccc(O)nc2)c2[nH]c(=O)n3c2c1OC[C@@H]3c1ccccn1 , value?
Result: 6.00 to 7.00

Problem: Checklist item: pIC50 tested on BRD4-BD1 (Homo sapiens (Human), UniProt O60885), entry Cc1noc(C)c1-c1ccc2nc(C(=O)N3CCOCC3)n3c2c1OC[C@@H]3c1ccccn1 , value?
Result: > 7.00

Problem: Checklist item: pIC50 tested on BRD4-BD1 (Homo sapiens (Human), UniProt O60885), entry Cc1noc(C)c1-c1cc(Cl)c2[nH]c(=O)n3c2c1OCC3c1ccccn1 (single isomer, unassigned) [Example 266B] , value?
Result: 5.00 to 6.00

Problem: Checklist item: pIC50 tested on BRD4-BD1 (Homo sapiens (Human), UniProt O60885), entry Cc1noc(C)c1-c1ccc2nc(C3CCN(C(=O)OC(C)(C)C)C3)n3c2c1OC[C@@H]3c1ccccn1 (single isomer, unassigned; diastereoisomer 1) [Example 101A] , value?
Result: > 7.00

Problem: Checklist item: pIC50 tested on BRD4-BD1 (Homo sapiens (Human), UniProt O60885), entry Cc1noc(C)c1-c1cc(Br)c2[nH]c(=O)n3c2c1OCC3c1ccccc1 (stereo not shown) , value?
Result: > 7.00

Problem: Checklist item: pIC50 tested on BRD4-BD1 (Homo sapiens (Human), UniProt O60885), entry Cc1noc(C)c1-c1cc(Cl)c2[nH]c(=O)n3c2c1OCC3c1ccccn1 (single isomer, unassigned) [Example 266A] , value?
Result: 6.00 to 7.00
